B1: scFv; the commonest letter at each place (parent)
chain 1: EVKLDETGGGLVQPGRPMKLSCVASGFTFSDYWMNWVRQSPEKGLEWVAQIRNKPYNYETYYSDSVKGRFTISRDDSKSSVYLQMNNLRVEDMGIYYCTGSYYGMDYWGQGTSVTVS
chain 2: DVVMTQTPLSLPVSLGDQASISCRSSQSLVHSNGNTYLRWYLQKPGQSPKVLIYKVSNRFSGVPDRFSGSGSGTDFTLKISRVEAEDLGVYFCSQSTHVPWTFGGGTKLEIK

# Variants of: B1
# TEST NAME: yeast surface expression (ratio to wild type); higher = more expressed
# TEST CONTEXT: format: scFv 4-4-20, heavy + light
REPORTED ENDPOINT: yeast surface expression
One number for each entry.

Please review the entries below; each comes with its answer.
Query :: Quick one: yeast surface expression of chain 1 Y102E Y103A ?
Result :: 0.993

Query :: Quick one: yeast surface expression of chain 1 S30N N35T ?
Result :: 0.803

Query :: Quick one: yeast surface expression of chain 1 D31S V37H ?
Result :: 0.644

Query :: Quick one: yeast surface expression of chain 1 W33E N35K ?
Result :: 0.455

Query :: Quick one: yeast surface expression of chain 1 F29L ?
Result :: 0.984

Lab note: each variant below needs its yeast surface expression filled in.
1. chain 1 V37C
2. chain 1 M105A W108Q

Result ::
1. 0.926
2. 0.38
